Data provenance: patent US20040009530A1

Target: T1, human chorionic gonadotropin (human, UniProt P01215 25-116; P0DN86 21-165, biotinylated using an NHS-SS-biotin reagent (sites not given))
T1 construct: The target was biotinylated and immobilized on Neutravidin- or Streptavidin-coated strip plates; also called hCG
T1 sequence (P01215 25-116, chain 1 of 2, other chains not shown): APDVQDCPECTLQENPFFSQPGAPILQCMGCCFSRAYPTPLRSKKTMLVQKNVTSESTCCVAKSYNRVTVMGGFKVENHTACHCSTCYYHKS
Assay: affinity ELISA, hCG immobilized, serial dilution of engineered rubredoxin
pEC50: −log10 of the molar value.
This section presents binders with their documented pEC50 values.
Attribute measured: pEC50

Binder	Value reported
engineered rubredoxin protein D7 (designed binder, Engineered Pyrococcus furiosus rubredoxin; No tags are stated for the assayed construct) MAKWVCKICGYIYDEDAGEDPGHRSRYISPGTKFEELTTGWTCPICRCTNSTTSTNCFEKLED	5.40
engineered rubredoxin protein G3 (designed binder, Engineered Pyrococcus furiosus rubredoxin) MAKWVCKICGYIYDEDAGFVEYYGHPNISPGTKFEELSRYVDGWTCPICSYGMPIFEKLED	7.09
engineered rubredoxin protein F3 (designed binder, Engineered Pyrococcus furiosus rubredoxin; No tags are stated for the assayed construct) MAKWVCKICGYIYDEDAGFVEYYDDGVISPGTKFEELHTAWTCPICSCTYNPFEKLED	7.46
